ASSAY SYSTEM: T1, mouse TMEM106B (mouse, UniProt Q80X71 2-275)
T1 construct: on transiently transfected HEK293 cells, or natively expressed on mouse Neuro2a cells; also called moTMEM106B; murine TMEM106B
PROCEDURE TEXT: FACS Neuro2a;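 further: flow cytometry of cells stained with antibody or hybridoma supernatant (purified antibody at 10 µg/ml) for 1 h on ice, propidium iodide–positive dead cells gated out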
MFI class ranges: low = under 300, medium = from 300 up to 1000, high = 1000 and over

Some solved entries appear below for comparison.
Which class holds anti-TMEM106B antibody TM-23 (antibody, V domains shown) VH: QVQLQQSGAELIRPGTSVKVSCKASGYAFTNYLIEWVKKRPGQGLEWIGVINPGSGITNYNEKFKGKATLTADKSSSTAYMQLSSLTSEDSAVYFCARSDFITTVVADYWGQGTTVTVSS VL: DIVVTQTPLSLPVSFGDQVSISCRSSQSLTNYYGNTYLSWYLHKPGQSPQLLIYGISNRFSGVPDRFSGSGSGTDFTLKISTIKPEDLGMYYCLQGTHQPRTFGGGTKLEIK ?
medium

Form: Item = anti-TMEM106B antibody TM-45 (antibody, V domains shown) VH: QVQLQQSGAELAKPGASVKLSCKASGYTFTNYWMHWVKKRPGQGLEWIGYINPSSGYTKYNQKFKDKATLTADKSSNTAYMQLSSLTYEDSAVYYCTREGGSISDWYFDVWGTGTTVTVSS VL: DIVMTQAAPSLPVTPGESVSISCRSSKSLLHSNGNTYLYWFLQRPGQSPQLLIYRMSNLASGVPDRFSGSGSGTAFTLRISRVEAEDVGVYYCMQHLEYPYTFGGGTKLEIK ; Class = ?
low

Which class holds anti-TMEM106B antibody TM-35 (antibody, V domains shown) VH: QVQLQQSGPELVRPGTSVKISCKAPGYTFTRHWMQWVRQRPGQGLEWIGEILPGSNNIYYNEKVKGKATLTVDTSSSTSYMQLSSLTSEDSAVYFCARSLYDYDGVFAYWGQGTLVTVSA VL: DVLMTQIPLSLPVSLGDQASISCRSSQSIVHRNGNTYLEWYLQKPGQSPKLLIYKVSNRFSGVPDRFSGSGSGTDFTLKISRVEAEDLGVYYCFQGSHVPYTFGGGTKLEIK ?
low

Just checking, what class would you give anti-TMEM106B antibody TM-5 (antibody, V domains shown) VH: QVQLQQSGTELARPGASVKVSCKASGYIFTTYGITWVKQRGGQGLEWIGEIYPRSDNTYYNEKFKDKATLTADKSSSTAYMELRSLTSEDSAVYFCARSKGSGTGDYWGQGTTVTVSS VL: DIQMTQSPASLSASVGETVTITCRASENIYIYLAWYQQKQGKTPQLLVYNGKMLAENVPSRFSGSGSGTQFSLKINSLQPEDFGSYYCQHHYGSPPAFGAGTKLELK here?
high

Band for anti-TMEM106B antibody TM-16 (antibody, V domains shown) VH: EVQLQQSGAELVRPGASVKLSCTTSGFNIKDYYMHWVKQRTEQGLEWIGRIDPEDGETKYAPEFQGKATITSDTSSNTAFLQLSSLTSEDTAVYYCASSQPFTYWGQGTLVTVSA VL: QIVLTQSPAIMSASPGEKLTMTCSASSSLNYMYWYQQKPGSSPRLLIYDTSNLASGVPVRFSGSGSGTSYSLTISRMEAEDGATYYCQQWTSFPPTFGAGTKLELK ?
medium

Further cases:
Entry anti-TMEM106B antibody TM-3 (antibody, V domains shown) VH: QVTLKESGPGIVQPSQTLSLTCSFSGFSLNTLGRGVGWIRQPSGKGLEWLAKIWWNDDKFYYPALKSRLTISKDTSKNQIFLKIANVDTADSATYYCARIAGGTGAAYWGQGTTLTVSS VL: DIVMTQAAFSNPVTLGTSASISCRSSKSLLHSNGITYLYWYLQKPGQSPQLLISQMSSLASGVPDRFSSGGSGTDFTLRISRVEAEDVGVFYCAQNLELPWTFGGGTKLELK belongs to which category?
high

Tag the class for anti-TMEM106B antibody TM-12 (antibody, V domains shown) VH: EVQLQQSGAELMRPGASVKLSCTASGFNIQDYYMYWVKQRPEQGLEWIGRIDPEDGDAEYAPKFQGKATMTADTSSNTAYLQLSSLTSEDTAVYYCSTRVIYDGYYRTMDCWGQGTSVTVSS VL: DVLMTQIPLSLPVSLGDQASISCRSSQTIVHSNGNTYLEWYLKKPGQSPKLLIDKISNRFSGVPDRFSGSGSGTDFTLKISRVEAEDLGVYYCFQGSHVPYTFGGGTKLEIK
high

Which bin, given its MFI, does anti-TMEM106B antibody TM-7 (antibody, V domains shown) VH: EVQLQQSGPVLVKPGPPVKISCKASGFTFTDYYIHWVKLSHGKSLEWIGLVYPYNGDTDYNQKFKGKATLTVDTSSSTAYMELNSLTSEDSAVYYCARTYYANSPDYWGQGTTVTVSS VL: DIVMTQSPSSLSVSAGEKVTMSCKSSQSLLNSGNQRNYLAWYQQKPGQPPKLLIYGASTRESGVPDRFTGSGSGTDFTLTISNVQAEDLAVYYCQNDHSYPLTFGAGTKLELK occupy?
high

Form: Item = anti-TMEM106B antibody TM-50 (antibody, V domains shown, mouse IgG from hybridoma) VH: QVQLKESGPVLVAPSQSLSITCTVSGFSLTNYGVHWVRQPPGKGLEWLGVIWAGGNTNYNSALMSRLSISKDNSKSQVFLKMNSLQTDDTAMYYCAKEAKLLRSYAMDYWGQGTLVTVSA VL: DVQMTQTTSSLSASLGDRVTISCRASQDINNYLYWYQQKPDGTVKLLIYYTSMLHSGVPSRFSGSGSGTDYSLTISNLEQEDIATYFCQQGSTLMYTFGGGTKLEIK ; Class = ?
low

Band for anti-TMEM106B antibody TM-52 (antibody, V domains shown, mouse IgG from hybridoma) VH: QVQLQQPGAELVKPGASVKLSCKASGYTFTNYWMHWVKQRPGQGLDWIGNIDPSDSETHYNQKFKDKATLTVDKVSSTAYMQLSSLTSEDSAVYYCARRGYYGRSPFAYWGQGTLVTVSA VL: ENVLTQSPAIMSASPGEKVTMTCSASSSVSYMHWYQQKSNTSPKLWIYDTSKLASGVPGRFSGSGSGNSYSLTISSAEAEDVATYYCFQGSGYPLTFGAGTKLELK ?
low
